- Tested on: KM12 colon
- experiment_summary: NCI tumour cell line growth inhibition, 48 h; in the data active = GI50 below about 0.43 µM; inactive = the rest
Labels: active, inactive

{"molecule": "CCOc1ccc2c(c1)C(=O)c1c-2n(CCCBr)c(=O)c2cc([N+](=O)[O-])ccc12", "category_label": "inactive"}
{"molecule": "O=c1c2cc(-c3ccccc3)sc2ncn1Cc1ccc(Cl)c(Cl)c1", "category_label": "active"}
{"molecule": "CSc1ncc(Br)c(Sc2nc(N)nc3nc[nH]c23)n1", "category_label": "inactive"}
{"molecule": "NC(=O)[C@@H](CC1CC1)[C@@H](CCC(F)(F)F)C(=O)N[C@H]1N=C(c2ccccc2)c2cccc(F)c2NC1=O", "category_label": "inactive"}
{"molecule": "CC1CN(S(=O)(=O)c2oc(-c3ccc(Cl)cc3)nc2C#N)CC(C)O1 (stereo not given)", "category_label": "inactive"}
{"molecule": "CCCCCN(CCCCC)CC(O)c1cc(Cl)ccc1OC (stereo not given)", "category_label": "inactive"}
{"molecule": "COc1ccc(Nc2nc3ccccc3c3occc23)cc1", "category_label": "inactive"}
{"molecule": "CCN(Cc1cc(F)ccc1F)c1ccc(CO)c(Cl)c1", "category_label": "inactive"}
{"molecule": "Cc1cc(Nc2nc(C(=O)Nc3ccccc3)nc3ccccc23)n[nH]1", "category_label": "inactive"}
{"molecule": "NS(=O)(=O)c1ccc(N2N=C3c4ccccc4CC3C2c2cccs2)cc1 (stereo not given)", "category_label": "inactive"}

---

- System: HCT-15 colon
- experiment_summary: NCI tumour cell line growth inhibition, 48 h; in the data active = GI50 below about 0.43 µM; inactive = the rest
Classes used: yes for active, no for inactive

{"molecule": "COC(=O)c1cc2c(cc1Cl)SC1=NN(C)S(=O)N1S2(=O)=O (stereo not given)", "category_label": "no"}
{"molecule": "COc1ccc(C(=O)c2cc3c(N)c(C(=O)Nc4ccccc4)sc3nc2C)cc1", "category_label": "yes"}
{"molecule": "NS(=O)(=O)c1ccc(N2N=C3c4ccccc4CC3C2c2cccs2)cc1 (stereo not given)", "category_label": "no"}
{"molecule": "C1=C/COCc2cc(ccc2OCCN2CCCC2)Nc2nccc(n2)-c2ccc(o2)COC/1", "category_label": "no"}
{"molecule": "CCCCCCCC(=O)OCCCC1[C@]2(C)CC[C@@]3(C)C([C@H](C)CCC=C(C)C)CC[C@]3(C)C2CC[C@]12OC2(C)C (stereo not given in full)", "category_label": "no"}

---

- Tested on: K-562 leukemia
- experiment_summary: NCI tumour cell line growth inhibition, 48 h
Some compounds, each annotated with its measured TGI.

{"compound": "CCCCCN(CCCCC)CC(O)c1cc(Cl)ccc1OC (stereo not given)", "result_modifier": "=", "TGI, µM": 20.3}
{"compound": "CSc1nc(NC2OC(COC(C)=O)C(OC(C)=O)C(OC(C)=O)C2OC(C)=O)c(N=C(C)C(C)=O)c(=O)[nH]1 (stereo not given)", "result_modifier": ">", "TGI, µM": 100}
{"compound": "O=[N+]([O-])c1nccn1CC(O)CN1CCCCC1 (stereo not given)", "result_modifier": ">", "TGI, µM": 100}
{"compound": "C[Si](C)(C)C(CCCCSc1ccccc1)(Sc1ccccc1)Sc1ccccc1", "result_modifier": ">", "TGI, µM": 100}
{"compound": "CN1CCN(CCOc2ccc(-c3cnc4c(-c5cccc(F)c5)cnn4c3)cc2)CC1", "result_modifier": "=", "TGI, µM": 3.48}

---

The reader will find reported TGI values listed item by item below.
- System: SF-268 CNS
- experiment_summary: NCI tumour cell line growth inhibition, 48 h
measured_property: TGI

{"compound": "CCCc1c(C(=O)OCC)[nH]c(-c2ccc(-c3[nH]c(C(=O)OCC)c(CCC)c3C(=O)OCC)s2)c1C(=O)OCC", "measured_property": "TGI", "experimental_result": "> 100 µM"}
{"compound": "Cn1c(=O)c2[nH]c(SCCN3CCOCC3)nc2n(C)c1=S", "measured_property": "TGI", "experimental_result": "> 100 µM"}
{"compound": "CCC(C)Oc1nc2c(c(=O)n(C)c(=O)n2C)n1C (centres undefined)", "measured_property": "TGI", "experimental_result": "> 100 µM"}
{"compound": "CC(C)=CCOc1cc(NC(=S)c2ccsc2C)ccc1Cl", "measured_property": "TGI", "experimental_result": "> 100 µM"}
{"compound": "NC(=O)[C@@H](CC1CC1)[C@@H](CCC(F)(F)F)C(=O)N[C@H]1N=C(c2ccccc2)c2cccc(F)c2NC1=O", "measured_property": "TGI", "experimental_result": "> 100 µM"}
{"compound": "Cc1ccc(N(O)C(C)(C)C)cc1", "measured_property": "TGI", "experimental_result": "> 100 µM"}
{"compound": "O=C(O)c1cc(=O)c2c([nH]c3ccccc32)s1", "measured_property": "TGI", "experimental_result": "> 100 µM"}
{"compound": "CCN1CCN(Cc2ccc(NC(=O)Nc3nc4ccc(Oc5ccnc(C(=O)NC)c5)cc4s3)cc2C(F)(F)F)CC1", "measured_property": "TGI", "experimental_result": "4.12 µM"}
{"compound": "CC(C)(C)C(=O)OCC1OC(N=[N+]=[N-])C(OC(=O)C(C)(C)C)C(OC(=O)C(C)(C)C)C1OC(=O)C(C)(C)C (centres undefined)", "measured_property": "TGI", "experimental_result": "> 100 µM"}

---

- Tested on: SR leukemia
- experiment_summary: NCI tumour cell line growth inhibition, 48 h

{"compound": "CCN(Cc1cc(F)ccc1F)c1ccc(CO)c(Cl)c1", "quantity_unit": "µM", "result_modifier": "=", "TGI": 44.3}
{"compound": "COc1ccc(C(Cc2ccccc2)C2NC(=S)NC2=O)cc1 (stereo unspecified)", "quantity_unit": "µM", "result_modifier": ">", "TGI": 25}
{"compound": "COC(=O)c1c(CC(Cc2ccc3c(c2)CCCC3)C(=O)OC)ccc2c1CCCC2 (stereo unspecified)", "quantity_unit": "µM", "result_modifier": "=", "TGI": 86.7}
{"compound": "CC(C)(C)CC(C)(C)NC(=S)NO", "quantity_unit": "µM", "result_modifier": ">", "TGI": 100}
{"compound": "Cc1ccnc2nc(N)ccc12", "quantity_unit": "µM", "result_modifier": ">", "TGI": 100}
{"compound": "Cc1ccc(-c2nnc(CCCCCCCCc3nnc(-c4ccc(C)cc4O)n3N)n2N)c(O)c1", "quantity_unit": "µM", "result_modifier": ">", "TGI": 100}
{"compound": "Cc1ccc(-c2cc(O)c3nc4ccccc4n3c2)cc1", "quantity_unit": "µM", "result_modifier": ">", "TGI": 100}
{"compound": "C=C/C(C)=C/C[C@]1(C)[C@H](C)[C@@H](OC(=O)CCC)[C@H](O)[C@@]23C(=C[C@H](OC)C[C@@H]12)[C@@H](OC(=O)CCC)O[C@H]3OC(C)=O", "quantity_unit": "µM", "result_modifier": "=", "TGI": 1.49}
{"compound": "CC(C)c1nc(N(C)S(C)(=O)=O)nc(-c2ccc(F)cc2)c1/C=C/[C@@H](O)C[C@@H](O)CC(=O)O", "quantity_unit": "µM", "result_modifier": ">", "TGI": 100}
{"compound": "CCCCCN(CCCCC)CC(O)c1cc(Cl)ccc1OC (stereo unspecified)", "quantity_unit": "µM", "result_modifier": "=", "TGI": 30.5}
{"compound": "COC(=O)c1c(C)cccc1C1CN=NC12Cc1ccc(C)c(C)c1C2=O (stereo unspecified)", "quantity_unit": "µM", "result_modifier": ">", "TGI": 100}
{"compound": "COC(=O)CCc1c(Cc2ccc[nH]2)[nH]c(C(=O)OCc2ccccc2)c1C", "quantity_unit": "µM", "result_modifier": "=", "TGI": 66.5}
{"compound": "Cc1c2c(cc3c1C(=O)C(=O)C1=C3OC[C@@H]1C)C(C)(C)CCC2", "quantity_unit": "µM", "result_modifier": "=", "TGI": 50.2}
{"compound": "Nc1nccc(NCC2(CO)CCC2)n1", "quantity_unit": "µM", "result_modifier": ">", "TGI": 100}
{"compound": "O=C(N/C(=C\\c1ccc(Br)cc1)c1nc2ccccc2[nH]1)c1ccccc1", "quantity_unit": "µM", "result_modifier": "=", "TGI": 50.9}
{"compound": "COc1ccc(/C=C/C(=O)c2ccc(-n3cc(CN4CCN(c5cc6c(cc5F)c(=O)c(C(=O)O)cn6C5CC5)CC4)nn3)cc2)cc1OC", "quantity_unit": "µM", "result_modifier": ">", "TGI": 100}
{"compound": "Cc1cccc2c1c1ccc3c(c1n2C)C(=O)C=CC3=O", "quantity_unit": "µM", "result_modifier": "=", "TGI": 4.45}
{"compound": "CC(=O)OC1C2CCC3C(C)(O)C4CC(O)C(C)(C)C4(O)C(O)CC13CC2(C)O (stereo unspecified)", "quantity_unit": "µM", "result_modifier": ">", "TGI": 100}
{"compound": "C[Si](C)(C)C(CCCCSc1ccccc1)(Sc1ccccc1)Sc1ccccc1", "quantity_unit": "µM", "result_modifier": ">", "TGI": 100}
{"compound": "C=C(C)C1CC/C(C)=C/CC[C@]2(C)O[C@@H]2CCC2=CC1OC2=O (stereo partly specified)", "quantity_unit": "µM", "result_modifier": "=", "TGI": 51.5}
{"compound": "Cc1ccc(S(=O)(=O)NC(=O)NC(CCCCN=C(N)N)C(=O)O)cc1 (stereo unspecified)", "quantity_unit": "µM", "result_modifier": ">", "TGI": 100}
{"compound": "CCc1cccc(C)c1N1C(=O)C(=O)C(c2nc3ccccc3o2)C(=O)C1=O", "quantity_unit": "µM", "result_modifier": ">", "TGI": 100}
{"compound": "O=C(/C=C/c1ccc(C(F)(F)F)cc1)Nc1ccc(C=C2c3ccccc3C(=O)c3ccccc32)cc1", "quantity_unit": "µM", "result_modifier": "=", "TGI": 41.7}
{"compound": "CC(=O)NNc1nc(C)c(C(=O)NNC(=O)C(=O)Nc2cccc(C(C)=O)c2)s1", "quantity_unit": "µM", "result_modifier": "=", "TGI": 45.8}
{"compound": "Cc1cc(C)c2c(n1)sc1c(N)ncnc12", "quantity_unit": "µM", "result_modifier": ">", "TGI": 25}
{"compound": "CCCn1cnc2c(SCC(=O)O)nc(N)nc21", "quantity_unit": "µM", "result_modifier": ">", "TGI": 100}
{"compound": "Nc1cccc(S(=O)(=O)Nc2nnc(S(N)(=O)=O)s2)c1", "quantity_unit": "µM", "result_modifier": ">", "TGI": 100}
{"compound": "O=C1OC(c2ccccc2)=N/C1=C\\c1ccc(Oc2ccc(Cl)c(Cl)c2)cc1", "quantity_unit": "µM", "result_modifier": "=", "TGI": 57}
{"compound": "C[N+](C)(C)C=Nc1cccc2c1CCCC2", "quantity_unit": "µM", "result_modifier": ">", "TGI": 100}
{"compound": "COCC1OC(S(=O)(=O)c2ccccc2)C(O)C(OC)C1OC (stereo unspecified)", "quantity_unit": "µM", "result_modifier": ">", "TGI": 100}
{"compound": "COC(=O)C1=C(O)C(C(=O)OC)[C@]2(O)[C@@H](C(=O)OC)[C@H]1C[C@@H](c1ccccc1)[C@@H]2C(=O)OC (stereo partly specified)", "quantity_unit": "µM", "result_modifier": "=", "TGI": 24.1}
